Numbers sourced from patent US20230257396A1.

# subject.of.test: kinases (Homo sapiens)
# Construct: purchased Eurofins/DiscoveRx; host or cells: E. coli BL21-derived host (T7 phage display) for most kinases; HEK-293 for the rest
# Sequence (P07949 29-1114): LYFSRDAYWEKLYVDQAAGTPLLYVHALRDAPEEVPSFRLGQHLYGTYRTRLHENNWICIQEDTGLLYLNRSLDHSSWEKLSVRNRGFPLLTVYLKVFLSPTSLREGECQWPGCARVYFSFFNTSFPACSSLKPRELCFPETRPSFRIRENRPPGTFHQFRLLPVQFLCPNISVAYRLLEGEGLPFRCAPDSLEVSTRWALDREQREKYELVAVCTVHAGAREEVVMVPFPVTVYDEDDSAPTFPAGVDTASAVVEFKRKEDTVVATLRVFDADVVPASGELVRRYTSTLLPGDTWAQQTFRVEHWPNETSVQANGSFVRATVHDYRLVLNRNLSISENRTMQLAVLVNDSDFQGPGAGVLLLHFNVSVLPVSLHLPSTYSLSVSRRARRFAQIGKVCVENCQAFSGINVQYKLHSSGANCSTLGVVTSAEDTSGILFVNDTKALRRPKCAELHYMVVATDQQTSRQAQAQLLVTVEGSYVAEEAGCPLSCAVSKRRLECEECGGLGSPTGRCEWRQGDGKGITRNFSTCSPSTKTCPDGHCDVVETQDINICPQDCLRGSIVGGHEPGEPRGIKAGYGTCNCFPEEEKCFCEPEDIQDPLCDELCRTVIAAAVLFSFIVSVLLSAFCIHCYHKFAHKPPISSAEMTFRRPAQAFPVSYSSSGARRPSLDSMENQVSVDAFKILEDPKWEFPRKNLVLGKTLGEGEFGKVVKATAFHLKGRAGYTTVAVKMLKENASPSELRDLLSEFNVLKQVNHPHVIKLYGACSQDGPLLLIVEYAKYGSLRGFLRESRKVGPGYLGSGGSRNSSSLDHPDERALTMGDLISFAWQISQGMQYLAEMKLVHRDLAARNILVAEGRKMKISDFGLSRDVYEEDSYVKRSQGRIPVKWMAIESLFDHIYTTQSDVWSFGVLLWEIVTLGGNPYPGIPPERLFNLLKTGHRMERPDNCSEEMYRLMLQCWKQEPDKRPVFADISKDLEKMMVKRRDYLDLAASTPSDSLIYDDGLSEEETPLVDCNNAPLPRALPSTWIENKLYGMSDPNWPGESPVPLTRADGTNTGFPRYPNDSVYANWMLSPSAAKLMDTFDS
# experiment.notes: KINOMEscan kinase binding assay (Eurofins/DiscoveRx), % Ctrl
# experimental.context: target RET; 1 μM
Label TRUE for high-side % Ctrl, RET (at or above 40 % Ctrl) and FALSE for low-side % Ctrl, RET (below it).

These recorded examples may help you get a feel for the data.
molecule: CN1CCSCCOc2cc3c(cc2Cl)NC(=O)/C3=C\c2[nH]ccc2C1=O [Ex. 153]
subject.of.test: kinases (Homo sapiens)
class.label: FALSE
//
molecule: Cc1cc2c([nH]1)/C=C1\C(=O)Nc3cc(Cl)c(cc31)OCCO[C@@H](C(=O)N1CCN(C)CC1)CN(C)C2=O [Ex. 138]
subject.of.test: kinases (Homo sapiens)
class.label: TRUE
//
molecule: CN1CCOCCOc2cc3c(cc2Cl)NC(=O)/C3=C\c2[nH]ccc2C1=O [Ex. 143]
subject.of.test: kinases (Homo sapiens)
class.label: FALSE
//
molecule: Cc1cc2c([nH]1)/C=C1\C(=O)Nc3ccc(cc31)-c1c(noc1C)CNCCN(C)C2=O [Ex. 139]
subject.of.test: kinases (Homo sapiens)
class.label: TRUE

Quick check, % Ctrl, RET >= 40 % Ctrl? Cc1nn(C)c2c1-c1ccc3c(c1)/C(=C/c1[nH]ccc1C(=O)N(C)CCCO2)C(=O)N3 [Ex. 150] TRUE

Quick check, % Ctrl, RET >= 40 % Ctrl? Cc1cc2c([nH]1)/C=C1\C(=O)Nc3ccc(cc31)-c1c(C)nn(C)c1COCCN(C)C2=O [Ex. 146] TRUE

Quick check, % Ctrl, RET >= 40 % Ctrl? Cc1cc2c([nH]1)/C=C1\C(=O)Nc3cnc(cc31)-c1cn[nH]c1CNCCN(C)C2=O [Ex. 55] FALSE

====

# Test system: kinases
# experiment.notes: KINOMEscan kinase binding assay (Eurofins/DiscoveRx), % Ctrl
# experimental.context: 1 μM; EGFR(L747-E749del, A750P)
measured.property: % Ctrl, EGFR(L747-E749del, A750P) (% Ctrl)
Give the value in % Ctrl but do not write % Ctrl after it.

Worked examples, 3 compounds total:
smiles.text: Cc1cc2c([nH]1)/C=C1\C(=O)Nc3ccc(cc31)OCCOCCN(C)C2=O
% Ctrl, EGFR(L747-E749del, A750P) [% Ctrl]: 100
--
smiles.text: Cc1cc2c([nH]1)/C=C1\C(=O)Nc3ccc(cc31)-c1ccnn1CCNCCNC2=O
% Ctrl, EGFR(L747-E749del, A750P) [% Ctrl]: 89
--
smiles.text: Cc1cc2c([nH]1)/C=C1\C(=O)Nc3ccc(cc31)-c1c(noc1C)COCCN(C)C2=O
% Ctrl, EGFR(L747-E749del, A750P) [% Ctrl]: 85

Would you kindly share the measured % Ctrl, EGFR(L747-E749del, A750P) for Cc1cc2c([nH]1)/C=C1\C(=O)Nc3ccc(cc31)-c1ccnn1CCOCCNC2=O ? 68

Would you kindly share the measured % Ctrl, EGFR(L747-E749del, A750P) for Cc1cc2c([nH]1)/C=C1\C(=O)Nc3cnc(cc31)-c1cnn(C)c1COCCNC2=O ? 9

Would you kindly share the measured % Ctrl, EGFR(L747-E749del, A750P) for CNC(=O)[C@H]1CN(C)C(=O)c2cc(C)[nH]c2/C=C2\C(=O)Nc3cc(Cl)c(cc32)OCCO1 ? 82

Would you kindly share the measured % Ctrl, EGFR(L747-E749del, A750P) for Cc1cc2c([nH]1)/C=C1\C(=O)Nc3ccc(cc31)-c1c(C)n[nH]c1CNCCN(C)C2=O ? 26

Would you kindly share the measured % Ctrl, EGFR(L747-E749del, A750P) for Cc1cc2c([nH]1)/C=C1\C(=O)Nc3ccc(cc31)CN(C)C(=O)COCCNC2=O ? 83
